experimentalProtocol: Induction of hemolysis in human erythrocytes assessed as mean erythrocyte fragility by measuring level of hemolysis at 50% PBS at 100 ug/mL by spectrophotomtery based erythrocyte osmotic fragility assay
Type: cell-based
quantityKind: Activity

{"compound": "C=C[C@@]1(C)CC(=O)[C@@]23O[C@@H](c4ccccc4)O[C@H]4CCC(C)(C)[C@H]([C@H](OC(C)=O)[C@H](O)[C@@]2(C)O1)[C@]43C", "quantityKind": "Activity", "resultValue": 0.57}
{"compound": "COc1cc([C@@H]2c3cc4c(cc3[C@H](O)[C@H]3COC(=O)[C@H]23)OCO4)cc(OC)c1OC [PODOFILOX]", "quantityKind": "Activity", "resultValue": 0.69}
{"compound": "COc1cc(/C=C/C(=O)CC(=O)/C=C/c2ccc(O)c(OC)c2)ccc1O [CURCUMIN]", "quantityKind": "Activity", "resultValue": 0.53}
{"compound": "C=C[C@@]1(C)CC(=O)[C@@]23O[C@@H](c4ccccc4)O[C@H]4CCC(C)(C)[C@H]([C@H](O)[C@H](O)[C@@]2(C)O1)[C@]43C", "quantityKind": "Activity", "resultValue": 0.69}
{"compound": "C=C[C@@]1(C)CC(=O)[C@@]23O[C@@H](C)O[C@H]4CCC(C)(C)[C@H]([C@H](O)[C@H](O)[C@@]2(C)O1)[C@]43C", "quantityKind": "Activity", "resultValue": 0.69}

Where these numbers come from: ChEMBL document CHEMBL3352073
